For each entry below, report its IC50 value.
Target: ACAT2 (Mus musculus, UniProt O88908)
Construct: The resulting sediment was collected as a microsome fraction; from tissue; host or cells: mouse liver (hepatic microsome membrane fraction)
Sequence (O88908 whole entry): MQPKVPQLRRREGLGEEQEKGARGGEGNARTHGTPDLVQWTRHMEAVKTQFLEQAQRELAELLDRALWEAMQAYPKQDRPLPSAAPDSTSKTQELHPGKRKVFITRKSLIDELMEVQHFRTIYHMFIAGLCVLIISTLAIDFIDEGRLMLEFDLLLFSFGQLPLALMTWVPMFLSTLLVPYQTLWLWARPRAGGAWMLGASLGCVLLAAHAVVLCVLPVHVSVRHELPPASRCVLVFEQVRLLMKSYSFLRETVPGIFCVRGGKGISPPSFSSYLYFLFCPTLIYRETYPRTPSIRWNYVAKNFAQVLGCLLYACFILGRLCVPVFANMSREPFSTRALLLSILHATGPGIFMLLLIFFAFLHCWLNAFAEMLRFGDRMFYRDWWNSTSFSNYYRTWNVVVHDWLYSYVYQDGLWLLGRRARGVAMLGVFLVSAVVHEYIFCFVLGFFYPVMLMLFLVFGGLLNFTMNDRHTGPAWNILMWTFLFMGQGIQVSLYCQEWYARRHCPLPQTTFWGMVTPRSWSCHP
Experiment: Measurement of ACAT2-inhibiting activity (murine hepatic microsome, [14C]cholesteryl oleate formation)
Type: biochemical
Conditions: murine hepatic microsome membrane fraction, 5 min at 37° C.; read-out: Inhibitory activity (concentration required for 50% inhibition of ACAT 2 = IC50)

Request: Would you kindly share the measured IC50 for CC(=O)O[C@H]1CC2C3(C)CO[C@@H](c4ccccc4)O[C@H]3CC[C@]2(C)C2[C@@H](O)c3c(cc(-c4cccnc4)oc3=O)O[C@@]21C (stereo partly shown) ?
Response: 1 to 10 nM

Request: Please do the same for CC(=O)O[C@H]1CC[C@@]2(C)C(C[C@H](OC(C)=O)[C@@]3(C)Oc4cc(-c5cccnc5)oc(=O)c4[C@H](O)C23)C1(C)COC(=O)c1ccccc1 (stereo partly shown) as well.
Response: 1 to 10 nM

Request: Please do the same for CC(=O)O[C@H]1CC[C@@]2(C)C(C[C@H](OC(=O)c3ccc(C#N)cc3)[C@@]3(C)Oc4cc(-c5cccnc5)oc(=O)c4[C@H](O)C23)C1(C)C(=O)O (stereo partly shown) as well.
Response: < 0.5 nM

Request: Please do the same for Cc1ccc([C@@H]2OCC3(C)C4C[C@H](OC(=O)c5ccc(F)cc5)[C@@]5(C)Oc6cc(-c7cccnc7)oc(=O)c6[C@H](O)C5[C@@]4(C)CC[C@@H]3O2)cc1 (stereo partly shown) as well.
Response: < 0.5 nM
